Origin of values: ChEMBL document CHEMBL5053482

Assay: Cytotoxicity against in human U87.CD4.CCR5.CXCR4 cells assessed as reduction in cell viability measured after 48 hrs by CCK8 assay
Assay type: cell-based
Conditions: u87.cd4.ccr5.cxcr4, 48 h, read-out: CC50
observed_property: CC50

Answered cases to consult:
{"compound": "Cc1[nH]c2ccccc2c1CC(=O)N[C@@H](Cc1ccccc1)C(=O)N(C)c1ccccc1", "observed_property": "CC50", "reported_value": "66.7 µM"}
{"compound": "Cc1[nH]c2ccccc2c1CC(=O)NC(Cc1ccccc1)C(=O)N(C)c1ccccc1 (racemic)", "observed_property": "CC50", "reported_value": "36.8 µM"}
{"compound": "CN(C(=O)C(Cc1ccccc1)NC(=O)Cc1n[nH]c2c(N)cccc12)c1ccc2[nH]ncc2c1 (racemic)", "observed_property": "CC50", "reported_value": "415 µM"}
{"compound": "CN(C(=O)[C@H](Cc1ccccc1)NC(=O)Cc1n[nH]c2c(N)cccc12)c1ccc2[nH]ncc2c1", "observed_property": "CC50", "reported_value": "102 µM"}
{"compound": "Cc1[nH]c2ccccc2c1CC(=O)NC(Cc1ccccc1)C(=O)N(C)c1ccc2[nH]ncc2c1 (racemic)", "observed_property": "CC50", "reported_value": "76.9 µM"}

Prompt: CC50 for CN(C(=O)C(Cc1ccccc1)NC(=O)Cc1c[nH]c2c(N)cccc12)c1ccccc1 (racemic) ?
Completion: 83.5 µM

Prompt: CC50 for Cc1[nH]c2ccccc2c1CC(=O)N[C@@H](Cc1ccccc1)C(=O)N(C)c1ccc2[nH]ncc2c1 ?
Completion: 46.9 µM

Prompt: CC50 for CN(C(=O)[C@H](Cc1ccccc1)NC(=O)Cc1c[nH]c2c(N)cccc12)c1ccccc1 ?
Completion: 101 µM
